Value source: PubChem BioAssay

test system: glycogen synthase kinase-3 (GSK3A per assay name; protocol says GSK3B); experiment: compounds binding glycogen synthase kinase-3 – biochemical, small-molecule microarray, 635 nm fluorescence, GSK3A, primary screen (AID 1103); settings: fluorescence 635 nm, higher = more signal; also: the record names both GSK3A and GSK3B
Please respond with reported composite z-score for every item in the list.
# respond with the number and nothing more

Fill in: composite z-score of CC(C)C[C@@H]1NC(=O)[C@@H]2C[C@H](C(=O)NCc3ccc(F)cc3)[C@H](c3ccc(O)cc3)N2C1=O is ___
0.819

Next compound up: COCCOC(=O)N1C(=O)[C@@]2(c3cc(C#Cc4ccc(OC)cc4)ccc31)[C@H](C(N)=O)[C@H]1C(=O)O[C@H](c3ccccc3)[C@H](c3ccccc3)N1[C@@H]2c1ccc(OCCO)cc1
1.33

Next compound up: Cc1cc(C)c(C(O)C2C=CC3C(=O)N(c4ccccc4)C(=O)C3N2Nc2ccc([N+](=O)[O-])cc2)c(C)c1 (stereo not given)
1.3

Next compound up: O=C1O[C@@H](c2ccccc2)[C@@H](c2ccccc2)N2[C@@H](c3ccc(O)cc3)[C@]3(C(=O)Nc4ccc(C#CC5(O)CCCCCC5)cc43)[C@@H](C(=O)N3CCN(c4ncccn4)CC3)[C@H]12
0.709

Next compound up: C=CC[C@]1(C(=O)NCC(O)CO)N=C(c2ccc(OCCCO)cc2)O[C@H]1c1ccccc1N=[N+]=[N-] (stereo not given in full)
-0.216

Next compound up: CC(C)C[C@@H]1NC(=O)[C@@]23C(=O)N[C@@H](Cc4ccccc4)C2[C@H](C)[C@@]2(C)O[C@H]2C3/C=C/C/C=C\CNC(=O)[C@@H]2CCCN2C1=O (stereo not given in full)
-0.623

Next compound up: Cc1ccccc1C(O)C1C=CC2C(=O)N(Cc3ccccc3)C(=O)C2N1n1cnnc1 (stereo not given)
0.644

Next compound up: C=CCC(OC(C)=O)[C@@H]1[C@@H](N(Cc2ccc(-c3ccccc3)cc2)C(=O)Cc2ccc(OC)cc2)c2cc(OCCCO)ccc2N1C(=O)c1ccc(-c2ccccc2)cc1 (stereo not given in full)
-0.15

Next compound up: CCOC(=O)C1=CC[C@@H](c2ccc(N(CC)CC)cc2)N(S(=O)(=O)c2ccc(C)cc2)[C@H]1c1ccc([N+](=O)[O-])cc1
-1.04

Next compound up: C=C(/C(=C/C[C@@H](OC(C)=O)c1ccccc1OCCO)c1cnc2ccccc2c1)C(C)C
0.312

Next compound up: COCC1=C([C@H](O)CCc2ccccc2)[C@H](CO)[C@@H]2C(=O)N(C)C(=O)[C@@H]2C1
0.189

Next compound up: NC(=O)NCC#Cc1ccc2c(c1)[C@]1(C(=O)N2)[C@H](c2ccc(OCCO)cc2)N2[C@H](c3ccccc3)[C@H](c3ccccc3)OC(=O)[C@H]2[C@@H]1C(=O)N1CCCCCCC1
1.27

Next compound up: NC(=O)[C@@H]1[C@H]2C(=O)O[C@H](c3ccccc3)[C@H](c3ccccc3)N2[C@H](c2ccccc2OCCO)[C@@]12C(=O)Nc1ccc(C#CCCO)cc12
-0.802

Next compound up: COCCOC(=O)N1C(=O)[C@@]2(c3cc(C#Cc4ccc(OC)cc4)ccc31)[C@H](C(=O)N1CCc3cc(OC)c(OC)cc3C1)[C@H]1C(=O)O[C@H](c3ccccc3)[C@H](c3ccccc3)N1[C@@H]2c1ccc(OCCO)cc1
1.03

Next compound up: C[C@H]1NC(=O)C([C@@H](C)OCc2ccccc2)NC(=O)[C@@]23C(=O)N[C@@H](Cc4ccccc4)C2[C@H](C)[C@@]2(C)O[C@H]2C3/C=C/CC/C=C/CNC1=O (stereo not given in full)
-0.248

Next compound up: C=CCNC(=O)[C@H]1[C@@H]2C(=O)O[C@@H](c3ccccc3)[C@@H](c3ccccc3)N2[C@@H](c2ccc(O)cc2)[C@]12C(=O)N(C(=O)OCCOC)c1ccc(C#CC3(O)CCCCCC3)cc12
0.716

Next compound up: COc1ccc(C(=O)Nc2ccc(CN3C(=O)[C@@]4(O[C@@H](CC(=O)N5Cc6ccccc6C[C@H]5CO)[C@H]([Si](C)(C)c5ccc(OC)cc5)[C@H]4C)c4ccccc43)cc2)cc1
0.81

Next compound up: [N-]=[N+]=NCc1ccccc1[C@H]1OC(c2ccc(OCCCO)cc2)=N[C@@]1(Cc1ccccc1N=[N+]=[N-])C(=O)N1CCCCC1
1.29

Next compound up: O=C(CS)NCCCCCNC(=O)[C@@H]1C[C@@H]2C(=O)N3CCC[C@H]3C(=O)N2[C@@H]1c1ccc(O)cc1
1.14

Next compound up: CC(C)(C)OC(=O)CC[C@@]1(C(=O)N2CCCCC2)N=C(c2ccc(OCCCO)cc2)O[C@@H]1c1ccccc1N=[N+]=[N-]
1.3

Next compound up: CCOC(=O)C[C@H]1[C@H](OC(=O)c2cc3ccccc3oc2=O)[C@@H](NC(=O)c2ccc3ccccc3n2)c2cc(OCCCO)ccc2N1C(=O)c1ccc2ccccc2n1
0.743

Next compound up: COCCOC(=O)N1C(=O)[C@@]2(c3cc(C#Cc4ccc(OC)cc4)ccc31)[C@H](c1ccc(OCCO)cc1)N1[C@H](c3ccccc3)[C@H](c3ccccc3)OC(=O)[C@H]1[C@@H]2C(N)=O
1.32

Next compound up: CCCCC(CC)C(O)C1C=CC2C(=O)NC(=O)C2N1Nc1ccccn1 (stereo not given)
0.493

Next compound up: COc1cc(C(O)C2C=CC3C(=O)NC(=O)C3N2Nc2ccc(Cl)cc2Cl)cc(OC)c1OC (stereo not given)
0.189

Next compound up: C[N+](C)(C)CCCCCCNC(=O)[C@@H]1C[C@@H]2C(=O)NCC(=O)N2[C@@H]1c1ccc(O)cc1
0.657
